Examples of compounds with documented GI50 follow.
- Tested on: HCT116 cells
- assayProcedure: Growth inhibition assay (MTS)
- Type: cell-based
- conditionDetails: Homo sapiens, HCT-116; Table 5; HCT116 cells, 48 hours treatment, MTS; read-out: Growth Inhibition (GI50, uM) HCT116
reportedProperty: GI50 (µM)

- compound: "C=CCN1CC(=O)N2[C@@H](Cc3ccc(OP(=O)(O)O)cc3)C(=O)N(Cc3cccc4scnc34)C[C@@H]2N1C(=O)NCc1ccccc1 [Compound 167]"
  reportedProperty: "GI50"
  numericResult: 0.2
- compound: "C=CCN1CC(=O)N2[C@@H](Cc3ccc(O)cc3)C(=O)N(Cc3cccc4c3OCCO4)C[C@@H]2N1C(=O)NCc1ccccc1 [Compound 173]"
  reportedProperty: "GI50"
  numericResult: 0.8
- compound: "C=CCN1CC(=O)N2[C@@H](Cc3ccc(OP(=O)(O)O)cc3)C(=O)N(Cc3ccc(Cl)c(N(C)C)c3)C[C@@H]2N1C(=O)NCc1ccccc1 [Compound 131]"
  reportedProperty: "GI50"
  numericResult: 1.7

* * *

- Test system: HCT116 cells
- assayProcedure: Growth inhibition assay (MTS)
- Assay type: cell-based
- conditionDetails: Homo sapiens, HCT-116; Table 5; HCT116 cells, 48 hours treatment, MTS; read-out: Growth Inhibition (GI50, uM) HCT116
reportedProperty: GI50 (µM)

- compound: "CCOP(=O)(CC(=O)Nc1ccc(C[C@H]2C(=O)N(Cc3cccc4ccccc34)C[C@H]3N2C(=O)CN(C)N3C(=O)NCc2ccccc2)cc1)OCC [Compound 59]"
  numericResult: 55.1
- compound: "C=CCN1CC(=O)N2[C@@H](Cc3ccc(OP(=O)(O)O)cc3)C(=O)N(Cc3ccc4c(c3)OCCO4)C[C@@H]2N1C(=O)NCc1ccccc1 [Compound 182]"
  numericResult: 0.8
- compound: "C=CCN1CC(=O)N2[C@@H](Cc3ccc(OP(=O)(O)O)cc3)C(=O)N(Cc3cccc4c3OCCN4C)C[C@@H]2N1C(=O)NCc1ccccc1 [Compound 139]"
  numericResult: 1

* * *

- assayProcedure: Sulforhodamine B (SRB) assay
- Format: cell-based
- conditionDetails: human, 293 cells (renal), 293, Renal, read-out: GI50 (SRB in vitro cytotoxicity)

- molecule: "O=c1[nH]cc(F)c(=O)[nH]1 [Compound 5-FU, 5-fluorouracil]"
  GI50 at 48 h: "2.02 µg/mL"

* * *

- System: Survivin
- assayProcedure: Effect on survivin expression (Table 9)
- Assay type: cell-based
- conditionDetails: 5 uM
Examples of molecules with documented inhibition at 5 µM follow.

- molecule: "CN1CC(=O)N2C(Cc3ccc(O)cc3)C(=O)N(Cc3cccc4cccnc34)CC2N1C(=O)NCc1ccccc1 (stereo not drawn)"
  testedSystem: "Survivin"
  displayUnit: "%"
  inhibition at 5 µM: 97
- molecule: "Cc1c(CN2C[C@@H]3N(C(=O)CN(C)N3C(=O)NCc3ccccc3)[C@@H](Cc3ccc(O)cc3)C2=O)cccc1N(C)C"
  testedSystem: "Survivin"
  displayUnit: "%"
  inhibition at 5 µM: 48
- molecule: "CN(C)c1ccc(Cl)cc1CN1C[C@@H]2N(C(=O)CN(C)N2C(=O)NCc2ccccc2)[C@@H](Cc2ccc(O)cc2)C1=O"
  testedSystem: "Survivin"
  displayUnit: "%"
  inhibition at 5 µM: 0
